Tested on: Caco-2
PROCEDURE TEXT: cell viability relative to DMSO; higher = less toxic
APPLIED CONDITIONS: 72 h; 10000 nM
Catalogue of compounds with associated cell viability
The figure you give is taken to be in %; do not add the unit.

Here's what some known entries look like.
{"COMPOUND": "COc1ccc(CC2NCCc3c2[nH]c2ccc(C)cc32)c(Cl)c1OC (stereo unspecified)", "cell viability [%]": 87.9}
{"COMPOUND": "CC[C@@H](c1ccc(F)c(F)c1)n1c(C(=O)OC)c(-c2ccno2)[nH]c1=S", "cell viability [%]": 94.2}
{"COMPOUND": "CCCCCCCCCCCCC[N+](C)(C)Cc1ccccc1", "cell viability [%]": 19.5}
{"COMPOUND": "O=C(Nc1ccccc1)Nc1ccc(-c2ccc(C(=O)[C@@H]3CCC[C@@H]3C(=O)O)cc2)cc1", "cell viability [%]": 85.6}
{"COMPOUND": "CN(C)CCCN1c2ccccc2Sc2ccccc21", "cell viability [%]": 102}
{"COMPOUND": "CC(C)c1c(NC(=O)Nc2ccc(Cl)cc2)c(=O)n(-c2ccccc2)n1C", "cell viability [%]": 99.2}

### Prompt Specify reported cell viability for the compound shown: `O=C(Nc1ccccc1-c1cn2c(CN3CCNCC3)csc2n1)c1cnc2ccccc2n1`
### Response 5.4

### Prompt Name the recorded cell viability of the compound listed here: CN1CCc2c(c3ccccc3n2Cc2ccccc2)C1 [mebhydrolin]
### Response 100

### Prompt Query cell viability for `C[C@H](Nc1cc2c(-c3ccc4c(c3)OCO4)noc2cn1)c1ccccc1`
### Response 97.9

Attribution: the supplement of paper PMC13380429
